Consider the following compounds; for each one, report its melting point.
Answers are plain numbers, in °C.

// known answers, use as guide
compound="CC(O)C(=O)O (stereo not drawn)" readout_value=40.9
compound="C#CC(O)c1ccccc1 (stereo not drawn)" readout_value=22
compound=Nc1cccc(-c2cccc(N)c2)c1 readout_value=93.5
compound=Fc1cccc(F)c1-c1nnc(-c2ccccc2Cl)nn1 readout_value=188
compound=CCOP(=O)(OCC)OCC readout_value=-56.4
compound=Cc1ccccc1NC(N)=S readout_value=162

Would you mind listing melting point for each of the following compounds?
1. Oc1ccc(Nc2ccc(O)cc2)cc1
2. CC(=O)O.CCCCCCCCCCCCCCCCCC1=NCCN1
3. COc1ccc(C(=O)CCC(=O)O)cc1
4. C=CC(=O)OCC
5. CNC(=O)C(C)(C(C)C)C(C)C
6. Nc1c([N+](=O)[O-])ccc(Oc2ccccc2)c1Cl
7. CCCCCCl
8. COC1=C(O)C(=O)C(C)=C(O)C1=O

Result string:
1: 174; 2: 65; 3: 149; 4: -71.2; 5: 60; 6: 81.5; 7: -99; 8: 202

Would you mind listing melting point for each of the following compounds?
1. COc1ccc(C)cc1OC
2. O=C(O)c1cc2ccccc2[nH]1
3. OCC(O)CI (stereo not drawn)
4. CCCCCCCC(=O)NN
5. C#CCCCCCCCCCCCCCCCC

Result string:
1: 24; 2: 206; 3: 48.5; 4: 88; 5: 22.5

Would you mind listing melting point for each of the following compounds?
1. Cc1ccc(CO)c(C)c1
2. N#Cc1ccc(F)cc1
3. OCCCCCCCCCCO
4. C=CCCCC(=O)O

Result string:
1: 22; 2: 34.8; 3: 74; 4: -37

Would you mind listing melting point for each of the following compounds?
1. N#CC1CC2CCC1C2 (stereo not drawn)
2. BrCC(CBr)(CBr)CBr
3. CC1CNCC(C)O1 (stereo not drawn)
4. CCC(CC)(CO)CO
5. O=C(O)c1ccc2c(c1)OCO2

Result string:
[44, 163, -88, 61.5, 229]

Would you mind listing melting point for each of the following compounds?
1. FC(Cl)(Cl)I
2. O=C(NCN1CCOCC1)c1cnccn1
3. Cc1c(C)c(C)c(N)c(C)c1C
4. NC(=O)CF

Result string:
[-107, 118, 152, 108]

Would you mind listing melting point for each of the following compounds?
1. CC(C)N1C(=O)N(c2ccccc2)CSC1=NC(C)(C)C
2. CC(C)(Sc1cc(C(C)(C)C)c(O)c(C(C)(C)C)c1)Sc1cc(C(C)(C)C)c(O)c(C(C)(C)C)c1
3. O=C1c2ccccc2C(=O)c2c(O)ccc(O)c21
4. O=C(Nc1ccccc1)c1cc(Cl)ccc1O
5. CCOP(=S)(OCC)SCn1nnc2ccccc2c1=O

Result string:
[105, 125, 200, 211, 53]

Would you mind listing melting point for each of the following compounds?
1. CC1=C(/C=C/C(C)=C/C=C/C(C)=C/C=C/C=C(C)/C=C/C=C(C)/C=C/C2=C(C)C[C@@H](O)CC2(C)C)C(C)(C)C[C@H](O)C1
2. OCc1ccco1
3. CCCCCBr
4. O=C1OC(=O)[C@H]2[C@@H]1[C@H]1C=C[C@@H]2C1
5. O=S1(=O)CCN(CN2CCS(=O)(=O)NC2)CN1
6. O=C1c2ccccc2C(=O)c2c(O)c(O)cc(O)c21

Result string:
216
-14.6
-95
164
156
259
